EXPERIMENTAL_TARGET: human recombinant MC3R (CHO-K1/Gα15 stable cell line, GenScript) (human, UniProt P41968 1-323)
Sequence (P41968 whole entry): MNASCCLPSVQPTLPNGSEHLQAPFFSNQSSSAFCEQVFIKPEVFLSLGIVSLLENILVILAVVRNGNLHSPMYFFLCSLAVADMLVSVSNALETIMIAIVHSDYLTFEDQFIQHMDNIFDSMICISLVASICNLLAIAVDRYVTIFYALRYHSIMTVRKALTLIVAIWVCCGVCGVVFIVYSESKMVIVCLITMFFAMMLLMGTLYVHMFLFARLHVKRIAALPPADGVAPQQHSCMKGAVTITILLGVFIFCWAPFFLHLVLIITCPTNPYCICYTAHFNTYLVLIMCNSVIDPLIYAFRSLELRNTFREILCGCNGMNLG
ASSAY_OVERVIEW: cell-based or functional assay
Starred links: 1 amine or outer side, 2 acyl side, 3 side chain; linkers in the order of their positions; H or OH if unused. Positions of bridges follow the written chain, without caps; N, C: chain ends. Non-standard residues stand in square brackets, D forms with d. *: point of attachment. HyPA = 3,5-dihydroxyphenylacetic acid (N-terminal cap), O=C(Cc1cc(O)cc(O)c1)*; Hgln = homoglutamine, NC(=O)CCC[C@H](N[*:1])C(=O)[*:2]; NMeW = CN[C@@H](Cc1c[nH]c2ccccc12)C(=O)O; Lys(N3) = [N-]=[N+]=NCCCC[C@H](N)C(=O)O; Phe(4-NH2) = Nc1ccc(C[C@H](N)C(=O)O)cc1; Acetyl(4-pyridyl) = O=C(Cc1ccncc1)*; NMeH = CN[C@@H](Cc1c[nH]cn1)C(=O)O; NMeR = CN[C@@H](CCCNC(=N)N)C(=O)O; Hpra = C#CCC[C@H](N)C(=O)O; Nle = CCCC[C@H](N)C(=O)O; Pra = C#CC[C@H](N)C(=O)O
Could you please report measured MC3R IC50 for the items listed next?
# unit: nM | format: bare number

Challenge: Reported MC3R IC50, binder HyPA-[Nle][Lys(N3)]H[dF]RW[Pra]K-NH2 (triazole 2-7; not fully specified; printed as HyPA-Nle-[Lys(N3)-His-DPhe-Arg-Trp-Pra]-Lys-NH2) [KR-062] : ____
Response given: 13

Challenge: MC3R IC50 for Ac-EHFRWGC-NH2 (bridge N-7; not fully specified (bridges); printed as Cyclo(-Ac-Glu-His-Phe-Arg-Trp-Gly-Cys)-NH2) [KR-012] ?
Response given: 5570

Challenge: Need MC3R IC50 of Ac-SYSMEHF[NMeR]WGKPV-NH2 [KR-023] , thanks.
Response given: 13400

Challenge: Request the reported MC3R IC50 associated with Ac-MEHFRWGKPV-NH2 [KR-003]
Response given: 289

Challenge: What value of MC3R IC50 has been recorded for this entry: Ac-[Nle][Lys(N3)][NMeH][dF]R[NMeW][Pra]-NH2 (triazole 2-7) [KR-051]
Response given: 77.5

Challenge: Which value of MC3R IC50 has been reported for {Acetyl(4-pyridyl)}-[Nle][Lys(N3)]H[dF]RW[Pra]-NH2 (triazole 2-7; not fully specified; printed as PyAA-Nle-[Lys(N3)-His-DPhe-Arg-Trp-Pra]-NH2) [KR-074] in the records?
Response given: 165

Challenge: Return reported MC3R IC50; argument: Ac-[Nle][Lys(N3)]H[dF]RW[Pra][Hgln]-NH2 (triazole 2-7; not fully specified; printed as Ac-Nle-[Lys(N3)-His-DPhe-Arg-Trp-Pra]-Hgln-NH2) [KR-057]
Response given: 73.3

Challenge: Recorded MC3R IC50 of XXHFRWX (Ac-Nle-[Dab-His-DPhe-Arg-Trp-Dab] Linker: succinic acid-NH2) [KR-041] , please.
Response given: 24.1

Challenge: Which MC3R IC50 value is on record for Ac-EHFRWGKP-NH2 [KR-007] ?
Response given: 1400

Challenge: If you can, please state the reported MC3R IC50 value of Ac-SYSMEHFRWGK-NH2 [KR-006] .
Response given: 224

Challenge: Quick one: MC3R IC50 of Ac-SMEHFRWGKPV-NH2 [KR-002] ?
Response given: 176

Challenge: Return reported MC3R IC50; argument: Ac-[Nle][Lys(N3)]H[dF]RW[Hpra]K-NH2 (triazole 2-7; not fully specified; printed as Ac-Nle-[Lys(N3)-His-DPhe-Arg-Trp-HPra]-Lys-NH2) [KR-066]
Response given: 39.9

Challenge: Entry Ac-[Nle][Lys(N3)][Phe(4-NH2)][dF]RW[Pra]-NH2 (triazole 2-7) [KR-047] : reported MC3R IC50 = ?
Response given: 80.9

Challenge: What value of measured MC3R IC50 is listed for Ac-[Nle][Lys(N3)]H[dF][NMeR][NMeW][Pra]-NH2 (triazole 2-7) [KR-050] ?
Response given: 4480

Challenge: Fill in the blank: the reported MC3R IC50 of Ac-SYSMEHFR[NMeW]GKPV-NH2 [KR-024] is ____.
Response given: 515

Challenge: Suppose we examine the binder Ac-YSMEHFRWGKPV-NH2 [KR-001] ; what MC3R IC50 value has been reported?
Response given: 199

Challenge: Query: MC3R IC50; subject: XXHFRWX (Ac-Nle-[Dab(N3)-His-DPhe-Arg-Trp-Dab(N3)] linkr: 3,3′-Oxybis[1-propyne]-NH2) [KR-042]
Response given: 225
